- experimental_details: Half life in dog S9 fraction
- Type: ADME, Canis lupus familiaris
observation_type: half-life

1. C[C@@H]1CCO[C@H]2Cn3cc(C(=O)NCc4ccc(F)cc4F)c(=O)c([O-])c3C(=O)N12.[Na+] [DOLUTEGRAVIR SODIUM]    > 3 h
2. C[C@H]1CO[C@@H]2Cn3cc(C(=O)NCc4ccc(F)cc4F)c(=O)c(O)c3C(=O)N12    > 3 h

---

- experimental_details: Half life in rat hepatocytes
- Type: ADME, cell-based, Hepatocyte
observation_type: half-life

1. C[C@@H]1CCO[C@H]2Cn3cc(C(=O)NCc4ccc(F)cc4F)c(=O)c([O-])c3C(=O)N12.[Na+] [DOLUTEGRAVIR SODIUM]    > 3.67 h
2. C[C@H]1CO[C@@H]2Cn3cc(C(=O)NCc4ccc(F)cc4F)c(=O)c(O)c3C(=O)N12    > 3.67 h

---

The reader will find reported bioavailability values listed item by item below.
- experimental_details: Oral bioavailability in rat
- Assay type: ADME, organism-based
- test_conditions: in vivo
observation_type: bioavailability (%)

1) O=C(NCc1ccc(F)cc1)c1cn2c(c(O)c1=O)C(=O)N1CCCOC1C2 (racemic)    51
2) O=C(NCc1ccc(F)cc1)c1cn2c(c(O)c1=O)C(=O)N1CCCO[C@@H]1C2    52
3) O=C(NCc1ccc(F)cc1)c1cn2c(c(O)c1=O)C(=O)N1CCCO[C@H]1C2    79

---

- experimental_details: Half life in human S9 fraction
- Type: ADME
The compounds listed here are annotated with their half-life.
observation_type: half-life

1. C[C@H]1CO[C@@H]2Cn3cc(C(=O)NCc4ccc(F)cc4F)c(=O)c(O)c3C(=O)N12    > 3 h
2. C[C@@H]1CCO[C@H]2Cn3cc(C(=O)NCc4ccc(F)cc4F)c(=O)c([O-])c3C(=O)N12.[Na+] [DOLUTEGRAVIR SODIUM]    > 3 h

---

- Tested on: Human immunodeficiency virus 1
- experimental_details: Antiviral activity against Human immunodeficiency virus 1 3B infected in human MT4 cells after 4 to 5 days by bioluminescence assay
- Type: functional, organism-based
Listed here are molecules together with their documented IC50.
observation_type: IC50 (nM)

1) C[C@H]1CO[C@@H]2Cn3cc(C(=O)NCc4ccc(F)cc4F)c(=O)c(O)c3C(=O)N12    1.3
2) C[C@@H]1CCO[C@H]2Cn3cc(C(=O)NCc4ccc(F)cc4F)c(=O)c(O)c3C(=O)N12    2

---

- experimental_details: Volume of distribution at steady state in Sprague-Dawley rat at 1 mg/kg, iv and 5 mg/kg, po administered as suspension by LC-MS/MS analysis
- Type: ADME, organism-based
- test_conditions: in vivo, read-out: Vdss
observation_type: Vd (L/kg)

1. C[C@@H]1CCO[C@H]2Cn3cc(C(=O)NCc4ccc(F)cc4F)c(=O)c([O-])c3C(=O)N12.[Na+] [DOLUTEGRAVIR SODIUM]    0.1

---

- experimental_details: Oral bioavailability in Beagle dog at 5 mg/kg administered as capsule by LC-MS/MS analysis
- Assay type: ADME, organism-based, Canis lupus familiaris
- test_conditions: in vivo
observation_type: bioavailability (%)

1. C[C@H]1CO[C@@H]2Cn3cc(C(=O)NCc4ccc(F)cc4F)c(=O)c(O)c3C(=O)N12 [CABOTEGRAVIR]    8

---

- experimental_details: Volume of distribution at steady state in Beagle dog at 1 mg/kg, iv and 5 mg/kg, po administered as capsule by LC-MS/MS analysis
- Format: ADME, organism-based, Canis lupus familiaris
- test_conditions: in vivo, read-out: Vdss
observation_type: Vd (L/kg)

1. C[C@H]1CO[C@@H]2Cn3cc(C(=O)NCc4ccc(F)cc4F)c(=O)c(O)c3C(=O)N12    0.14

---

- experimental_details: Half life in monkey S9 fraction
- Type: ADME, Macaca mulatta
- test_conditions: rhesus monkey
observation_type: half-life

1. C[C@H]1CO[C@@H]2Cn3cc(C(=O)NCc4ccc(F)cc4F)c(=O)c(O)c3C(=O)N12    > 3 h
2. C[C@@H]1CCO[C@H]2Cn3cc(C(=O)NCc4ccc(F)cc4F)c(=O)c([O-])c3C(=O)N12.[Na+] [DOLUTEGRAVIR SODIUM]    > 3 h

---

- experimental_details: Volume of distribution at steady state in cynomolgus monkey at 1 mg/kg, iv and 5 mg/kg, po administered as suspension by LC-MS/MS analysis
- Type: ADME, organism-based, Macaca fascicularis
- test_conditions: in vivo, read-out: Vdss
observation_type: Vd (L/kg)

1. C[C@@H]1CCO[C@H]2Cn3cc(C(=O)NCc4ccc(F)cc4F)c(=O)c([O-])c3C(=O)N12.[Na+] [DOLUTEGRAVIR SODIUM]    0.3

---

- experimental_details: Fraction unbound in Beagle dog plasma at 1 mg/kg, iv and 5 mg/kg, po administered as suspension by equilibrium dialysis technique
- Type: ADME, organism-based, Canis lupus familiaris
observation_type: fraction unbound

1) C[C@@H]1CCO[C@H]2Cn3cc(C(=O)NCc4ccc(F)cc4F)c(=O)c([O-])c3C(=O)N12.[Na+] [DOLUTEGRAVIR SODIUM]    0.046

---

- experimental_details: Clearance in iv dosed rat
- Type: ADME, organism-based
- test_conditions: in vivo
observation_type: clearance (mL/min/kg)

1. O=C(NCc1ccc(F)cc1)c1cn2c(c(O)c1=O)C(=O)N1CCCO[C@H]1C2    0.1
2. O=C(NCc1ccc(F)cc1)c1cn2c(c(O)c1=O)C(=O)N1CCCO[C@@H]1C2    0.17
3. O=C(NCc1ccc(F)cc1)c1cn2c(c(O)c1=O)C(=O)N1CCCOC1C2 (racemic)    0.1

---

- experimental_details: Fraction unbound in cynomolgus monkey plasma at 1 mg/kg, iv and 5 mg/kg, po administered as capsule by equilibrium dialysis technique
- Type: ADME, organism-based, Macaca fascicularis
observation_type: fraction unbound

1. C[C@H]1CO[C@@H]2Cn3cc(C(=O)NCc4ccc(F)cc4F)c(=O)c(O)c3C(=O)N12    0.003

---

- Tested on: Human immunodeficiency virus
- experimental_details: Ratio of IC50 for pseudo Human immunodeficiency virus to IC50 for pseudo Human immunodeficiency virus in presence of human serum albumin
- Assay type: functional
Assign Criterion met to entries whose Ratio IC50 meets or exceeds 40; assign Criterion not met to the rest.

1) COC[C@H]1CCN2C(=O)c3c(O)c(=O)c(C(=O)NCc4ccc(F)cc4F)cn3C[C@H]2O1    Criterion not met
2) Cc1nnc(C(=O)NC(C)(C)c2nc(C(=O)NCc3ccc(F)cc3)c([O-])c(=O)n2C)o1.[K+]    Criterion met
3) C[C@H]1CO[C@@H]2Cn3cc(C(=O)NCc4ccc(F)cc4F)c(=O)c(O)c3C(=O)N12    Criterion met
4) O=C(NCc1ccc(F)cc1)c1cn2c(c(O)c1=O)C(=O)N1CCCO[C@H]1C2    Criterion met
5) COC[C@@H]1CCN2C(=O)c3c(O)c(=O)c(C(=O)NCc4ccc(F)cc4F)cn3C[C@@H]2O1    Criterion not met
6) C[C@@H]1CCN2C(=O)c3c(O)c(=O)c(C(=O)NCc4ccc(F)cc4)cn3C[C@@H]2O1    Criterion not met

---

- experimental_details: Half life in rat S9 fraction
- Assay type: ADME
Each item that follows carries a reported half-life.
observation_type: half-life

1) C[C@H]1CO[C@@H]2Cn3cc(C(=O)NCc4ccc(F)cc4F)c(=O)c(O)c3C(=O)N12 [CABOTEGRAVIR]    > 3 h
2) C[C@@H]1CCO[C@H]2Cn3cc(C(=O)NCc4ccc(F)cc4F)c(=O)c([O-])c3C(=O)N12.[Na+] [DOLUTEGRAVIR SODIUM]    > 3 h

---

- experimental_details: Fraction unbound in cynomolgus monkey plasma at 1 mg/kg, iv and 5 mg/kg, po administered as suspension by equilibrium dialysis technique
- Type: ADME, organism-based, Macaca fascicularis
observation_type: fraction unbound

1. C[C@@H]1CCO[C@H]2Cn3cc(C(=O)NCc4ccc(F)cc4F)c(=O)c([O-])c3C(=O)N12.[Na+] [DOLUTEGRAVIR SODIUM]    0.009

---

// concentration at 24 h lookup, one value per entry
- experimental_details: Plasma concentration in rat at 5 mg/kg, po after 24 hrs
- Type: ADME, organism-based
- Design: dose 5 mg/kg, route oral
observation_type: concentration at 24 h

1) C[C@@H]1CCO[C@H]2Cn3cc(C(=O)NCc4ccc(F)cc4F)c(=O)c([O-])c3C(=O)N12.[Na+] [DOLUTEGRAVIR SODIUM]    908 ng/mL
2) C[C@H]1CO[C@@H]2Cn3cc(C(=O)NCc4ccc(F)cc4F)c(=O)c(O)c3C(=O)N12    9590 ng/mL
